Molecular target: T1, human chemokine (C-C motif) receptor 8 (CCR8) (human, UniProt P51685 1-355)
T1 construct: On human peripheral blood lymphocytes / PBMC (native) or on human CCR8 GFP-transfected Ba/F3 cells; also called hCCR8; human CCR8
T1 sequence (P51685 whole entry): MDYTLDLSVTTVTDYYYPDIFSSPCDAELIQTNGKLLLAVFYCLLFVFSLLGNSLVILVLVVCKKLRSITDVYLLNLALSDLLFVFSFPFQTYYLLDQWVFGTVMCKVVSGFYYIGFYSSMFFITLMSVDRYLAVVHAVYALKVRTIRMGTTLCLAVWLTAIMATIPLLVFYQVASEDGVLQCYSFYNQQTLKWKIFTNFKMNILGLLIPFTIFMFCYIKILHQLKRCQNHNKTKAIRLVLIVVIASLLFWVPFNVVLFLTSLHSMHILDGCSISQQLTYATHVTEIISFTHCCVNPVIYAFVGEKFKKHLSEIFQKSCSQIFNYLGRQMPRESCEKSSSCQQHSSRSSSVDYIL
Assay: flow cytometry blocking, PBMC CCR8+ CD4+ cells; competitor PE-ABII (its MFI is read)
measure.name: % Blocking (%)
Form entry: value (%) — number only.

Field: example entries. Status: answers known.
| binder | unit.of.measurement | % Blocking |
| --- | --- | --- |
| AB14 (antibody, V domains shown, Hybridoma monoclonal; also called antibody 14; clone 14) VH: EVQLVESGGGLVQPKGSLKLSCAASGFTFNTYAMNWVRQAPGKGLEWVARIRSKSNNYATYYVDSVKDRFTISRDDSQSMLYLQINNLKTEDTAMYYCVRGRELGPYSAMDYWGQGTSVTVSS VL: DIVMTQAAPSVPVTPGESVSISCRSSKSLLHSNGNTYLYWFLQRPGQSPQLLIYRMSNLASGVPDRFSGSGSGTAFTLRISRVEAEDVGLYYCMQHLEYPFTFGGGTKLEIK | % | 9.26 |
| AB1 (antibody, V domains shown, Hybridoma monoclonal (mice or rats immunised); Used purified and PE-conjugated; also called antibody 1; clone 1) VH: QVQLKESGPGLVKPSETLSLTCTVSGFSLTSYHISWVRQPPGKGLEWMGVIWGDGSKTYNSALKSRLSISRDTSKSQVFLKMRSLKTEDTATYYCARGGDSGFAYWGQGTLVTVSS VL: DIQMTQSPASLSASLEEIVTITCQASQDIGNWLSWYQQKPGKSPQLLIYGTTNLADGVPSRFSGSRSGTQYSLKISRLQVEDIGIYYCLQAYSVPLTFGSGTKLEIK | % | 2.87 |
| AB10 (antibody, V domains shown, Hybridoma monoclonal; also called antibody 10; clone 10) VH: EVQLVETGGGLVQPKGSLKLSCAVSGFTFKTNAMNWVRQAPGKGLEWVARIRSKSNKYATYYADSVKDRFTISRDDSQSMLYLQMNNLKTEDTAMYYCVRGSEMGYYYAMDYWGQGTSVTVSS VL: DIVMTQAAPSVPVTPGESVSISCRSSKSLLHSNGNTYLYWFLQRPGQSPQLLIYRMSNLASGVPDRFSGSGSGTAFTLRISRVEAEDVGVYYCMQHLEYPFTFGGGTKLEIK | % | 15 |
| AB11 (antibody, V domains shown, Hybridoma monoclonal; also called antibody 11; clone 11) VH: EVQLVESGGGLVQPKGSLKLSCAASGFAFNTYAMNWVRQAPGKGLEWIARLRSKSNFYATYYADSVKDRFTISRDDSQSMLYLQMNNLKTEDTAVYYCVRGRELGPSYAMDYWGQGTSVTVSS VL: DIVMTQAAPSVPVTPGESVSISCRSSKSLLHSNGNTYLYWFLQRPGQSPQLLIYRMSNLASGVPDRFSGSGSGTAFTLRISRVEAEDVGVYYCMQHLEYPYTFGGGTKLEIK | % | 16.6 |

Inquiry: Given the binder AB5 (antibody, V domains shown, Hybridoma monoclonal; also called antibody 5; clone 5) VH: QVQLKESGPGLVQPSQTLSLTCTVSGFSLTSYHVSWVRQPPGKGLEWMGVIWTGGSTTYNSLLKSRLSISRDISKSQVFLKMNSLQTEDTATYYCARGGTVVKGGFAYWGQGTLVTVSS VL: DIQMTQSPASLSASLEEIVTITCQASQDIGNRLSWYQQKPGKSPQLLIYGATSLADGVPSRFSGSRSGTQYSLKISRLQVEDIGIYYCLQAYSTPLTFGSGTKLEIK , write its reported % Blocking.
Reply text: -8.53
